# rate annotations
target: hSARM1 full length (Homo sapiens); construct: Human recombinant SARM1 full length proteins (wild-type and E642A mutant); made in house; test: Base exchange reactions at neutral pH (HPLC); type: biochemical; conditions: hSARM1 full length +VMN 0.05 mM; NAD […] alone or + free base
Sequence (Q6SZW1 28-724): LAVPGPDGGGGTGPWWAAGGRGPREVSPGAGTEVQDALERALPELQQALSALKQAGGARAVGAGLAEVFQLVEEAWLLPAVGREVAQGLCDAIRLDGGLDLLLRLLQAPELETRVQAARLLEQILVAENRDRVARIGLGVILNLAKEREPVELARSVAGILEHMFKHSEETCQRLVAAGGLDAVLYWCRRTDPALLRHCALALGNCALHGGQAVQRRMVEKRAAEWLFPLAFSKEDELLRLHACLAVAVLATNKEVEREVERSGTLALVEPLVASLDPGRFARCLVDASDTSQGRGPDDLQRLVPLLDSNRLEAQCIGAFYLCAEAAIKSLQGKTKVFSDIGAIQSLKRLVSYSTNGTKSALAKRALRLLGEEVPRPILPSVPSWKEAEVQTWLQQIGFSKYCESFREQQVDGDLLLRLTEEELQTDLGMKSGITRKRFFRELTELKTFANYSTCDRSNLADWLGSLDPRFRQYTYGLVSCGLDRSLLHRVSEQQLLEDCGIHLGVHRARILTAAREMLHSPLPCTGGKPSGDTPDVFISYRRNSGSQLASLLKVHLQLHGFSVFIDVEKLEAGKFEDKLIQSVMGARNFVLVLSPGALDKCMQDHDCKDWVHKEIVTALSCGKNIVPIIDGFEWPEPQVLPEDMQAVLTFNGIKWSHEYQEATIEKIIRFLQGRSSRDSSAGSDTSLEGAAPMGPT

{"columns": ["compound", "rate / mU/mg"],
 "data": [
  ["O=C(O)c1cccnc1", 199.0],
  ["O=C(NCc1ccc[n+]([C@@H]2O[C@H](COP(=O)(O)O)[C@@H](O)[C@H]2O)c1)Nc1ccc([N+](=O)[O-])cc1 [VMN, vacor mononucleotide]", 210.1],
  ["CC(=O)c1cccnc1", 228.9],
  ["O=C(NCc1cccnc1)Nc1ccc([N+](=O)[O-])cc1", 206.2]
]}
